- Target Under Test: human mGluR3 (Homo sapiens)
- Construct: expressed in transfected cells; host or cells: AV12 cells (adenovirus-transformed Syrian hamster cell line) stably expressing RGT and GLT, co-transfected with Galpha15
- Sequence (Q14832 23-879): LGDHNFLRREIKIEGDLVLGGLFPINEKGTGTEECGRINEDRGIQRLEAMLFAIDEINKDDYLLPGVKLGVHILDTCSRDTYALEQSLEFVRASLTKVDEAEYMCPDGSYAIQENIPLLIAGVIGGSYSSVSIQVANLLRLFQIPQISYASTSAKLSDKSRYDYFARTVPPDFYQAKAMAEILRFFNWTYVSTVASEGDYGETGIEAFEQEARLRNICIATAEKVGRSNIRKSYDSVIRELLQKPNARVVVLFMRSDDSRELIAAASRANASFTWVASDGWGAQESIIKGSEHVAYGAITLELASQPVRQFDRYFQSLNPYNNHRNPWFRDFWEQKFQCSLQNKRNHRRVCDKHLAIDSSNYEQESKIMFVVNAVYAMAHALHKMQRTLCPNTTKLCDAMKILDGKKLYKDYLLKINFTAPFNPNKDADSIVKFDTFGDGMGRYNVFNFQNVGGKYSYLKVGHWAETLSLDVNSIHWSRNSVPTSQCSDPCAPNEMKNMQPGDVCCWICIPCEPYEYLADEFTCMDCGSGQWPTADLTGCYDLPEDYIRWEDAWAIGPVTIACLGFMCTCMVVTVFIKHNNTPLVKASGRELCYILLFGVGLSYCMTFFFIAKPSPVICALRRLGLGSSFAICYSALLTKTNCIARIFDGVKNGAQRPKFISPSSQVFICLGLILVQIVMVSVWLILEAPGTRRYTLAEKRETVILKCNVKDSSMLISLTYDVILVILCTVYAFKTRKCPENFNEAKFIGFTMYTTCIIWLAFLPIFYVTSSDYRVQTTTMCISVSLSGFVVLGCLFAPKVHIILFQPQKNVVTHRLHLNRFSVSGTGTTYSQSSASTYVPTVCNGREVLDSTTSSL
- Method Notes: Antagonism of glutamate-induced increase in intracellular calcium (FLIPR) in mGluR3-expressing AV12 cells
- Format: cell-based
- Stated Conditions: antagonism of 50 μM glutamate-induced calcium response, AV12 cells expressing human mGluR3 and Gα15, Fluo-3AM
Counter-ions that a name gives are not always drawn.
Readings of pIC50 for the listed compounds
Value format note: pIC50 is -log10 of concentration (mol/L); just state the number.

These recorded examples may help you get a feel for the data.
>>> reported("Clc1ccc(CN[C@H]2CCN(c3ccc(I)cn3)C2)c(Cl)c1 [Example 23, hydrochloride]")
6.22
>>> reported("FC(F)(F)c1ccc(CN[C@H]2CCN(c3ncc(Br)cn3)C2)c(Cl)c1")
5.78

# context switch: different compound, same pIC50
Requested read-out: pIC50. Entry: Clc1ccc(CN[C@H]2CCN(c3ncc(Br)cn3)C2)c(Cl)c1
6.47
